assayInfo: MRT in Sprague-Dawley rat at 20 mg/kg, po after 0.25 to 24 hrs by LC-MS/MS analysis
Type: ADME, organism-based
conditionInfo: in vivo
reportedProperty: MRT (h)
Numbers only, in h.

Consider the reported MRT for these compounds:
CC[C@H]1OC(=O)[C@@](C)(F)C(=O)[C@H](C)[C@@H](O[C@@H]2O[C@H](C)C[C@H](N(C)C)[C@H]2O)[C@](C)(OC/C=C/c2ccc3c(c2)c(=O)c(C(N)=O)cn3C2CC2)C[C@@H](C)/C(=N\OC)[C@H](C)[C@H]2OC(=O)O[C@@]21C : 8.32
CC[C@H]1OC(=O)[C@@](C)(F)C(=O)[C@H](C)[C@@H](O[C@@H]2O[C@H](C)C[C@H](N(C)C)[C@H]2O)[C@](C)(OC)C[C@@H](C)/C(=N\OC/C=C/c2ccc3c(c2)c(=O)c(C(N)=O)cn3CC)[C@H](C)[C@H]2OC(=O)O[C@@]21C : 7.42

List reported MRT for each of these compounds:
1. CC[C@H]1OC(=O)[C@H](C)C(=O)[C@H](C)[C@@H](O[C@@H]2O[C@H](C)C[C@H](N(C)C)[C@H]2O)[C@](C)(OC)C[C@@H](C)C(=O)[C@H](C)[C@H]2N(CCCCn3cnc(-c4cccnc4)c3)C(=O)O[C@]12C
2. CC[C@H]1OC(=O)[C@@](C)(F)C(=O)[C@H](C)[C@@H](O[C@@H]2O[C@H](C)C[C@H](N(C)C)[C@H]2O)[C@](C)(OC)C[C@@H](C)/C(=N\OCC#Cc2ccc3c(c2)c(=O)c(C(N)=O)cn3CC)[C@H](C)[C@H]2OC(=O)O[C@@]21C

## Result
3.27
8.53

----------
Test system: Haemophilus influenzae
assayInfo: Antibacterial activity against azithromycin-susceptible Haemophilus influenzae ATCC 49247 assessed as reduction in microbial growth by CLSI based two-fold broth dilution method
Assay type: functional
reportedProperty: log10 of MIC (log10 of the value in µg/mL)
log10 MIC, µg/mL

CC[C@H]1OC(=O)[C@@](C)(F)C(=O)[C@H](C)[C@@H](O[C@@H]2O[C@H](C)C[C@H](N(C)C)[C@H]2O)[C@](C)(OC/C=C/c2ccc3[nH]ccc(=O)c3c2)C[C@@H](C)/C(=N\OC)[C@H](C)[C@H]2OC(=O)O[C@@]21C : 0.90
CC[C@H]1OC(=O)[C@@](C)(F)C(=O)[C@H](C)[C@@H](O[C@@H]2O[C@H](C)C[C@H](N(C)C)[C@H]2O)[C@](C)(OC)C[C@@H](C)/C(=N\OCCCc2ccc3c(c2)c(=O)c(C(=O)O)cn3C2CC2)[C@H](C)[C@H]2OC(=O)O[C@@]21C : 1.20
CC[C@H]1OC(=O)[C@@](C)(F)C(=O)[C@H](C)[C@@H](O[C@@H]2O[C@H](C)C[C@H](N(C)C)[C@H]2O)[C@](C)(OC)C[C@@H](C)/C(=N\OCC#Cc2cncc(C#N)c2)[C@H](C)[C@H]2OC(=O)O[C@@]21C : 0.90
CC[C@H]1OC(=O)[C@@](C)(F)C(=O)[C@H](C)[C@@H](O[C@@H]2O[C@H](C)C[C@H](N(C)C)[C@H]2O)[C@](C)(OC)C[C@@H](C)/C(=N\OC/C=C/c2ccc3[nH]ccc(=O)c3c2)[C@H](C)[C@H]2OC(=O)O[C@@]21C : 1.20
CC[C@H]1OC(=O)[C@@](C)(F)C(=O)[C@H](C)[C@@H](O[C@@H]2O[C@H](C)C[C@H](N(C)C)[C@H]2O)[C@](C)(OC)C[C@@H](C)/C(=N\OC/C=C/c2cncc(O)c2)[C@H](C)[C@H]2OC(=O)O[C@@]21C : 1.20

List reported log10 of MIC for each of these compounds:
1. CC[C@H]1OC(=O)[C@@](C)(F)C(=O)[C@H](C)[C@@H](O[C@@H]2O[C@H](C)C[C@H](N(C)C)[C@H]2O)[C@](C)(OC)C[C@@H](C)/C(=N\OCC#Cc2cnc(N)c3ccccc23)[C@H](C)[C@H]2OC(=O)O[C@@]21C
2. CC[C@H]1OC(=O)[C@@](C)(F)C(=O)[C@H](C)[C@@H](O[C@@H]2O[C@H](C)C[C@H](N(C)C)[C@H]2O)[C@](C)(OC/C=C/c2ccc3c(c2)c(=O)c(C(N)=O)cn3C2CC2)C[C@@H](C)/C(=N\OC)[C@H](C)[C@H]2OC(=O)O[C@@]21C
3. CC[C@H]1OC(=O)[C@@](C)(F)C(=O)[C@H](C)[C@@H](O[C@@H]2O[C@H](C)C[C@H](N(C)C)[C@H]2O)[C@](C)(OC/C=C/c2ccc3c(c2)c(=O)c(C(=O)NC)cn3C2CC2)C[C@@H](C)/C(=N\OC)[C@H](C)[C@H]2OC(=O)O[C@@]21C

## Result
1.81
1.20
1.51

----------
Test system: Staphylococcus aureus
assayInfo: Bactericidal activity against MLS-resistant Staphylococcus aureus PU 20 expressing constitutive ermC gene pretreated followed by subculture in absence of compound measured after 24 hrs
Type: functional
reportedProperty: MBC

Consider the reported MBC for these compounds:
CC[C@H]1OC(=O)[C@@](C)(F)C(=O)[C@H](C)[C@@H](O[C@@H]2O[C@H](C)C[C@H](N(C)C)[C@H]2O)[C@](C)(OC)C[C@@H](C)/C(=N\OCC#Cc2cncc3ccccc23)[C@H](C)[C@H]2OC(=O)O[C@@]21C : > 256 µg/mL
CC[C@H]1OC(=O)[C@@](C)(F)C(=O)[C@H](C)[C@@H](O[C@@H]2O[C@H](C)C[C@H](N(C)C)[C@H]2O)[C@](C)(OC)C[C@@H](C)/C(=N\OC/C=C/c2ccc3c(c2)c(=O)c(C(N)=O)cn3CC)[C@H](C)[C@H]2OC(=O)O[C@@]21C : > 256 µg/mL
O=C(O)c1cn(C2CC2)c2cc(N3CCNCC3)c(F)cc2c1=O : > 256 µg/mL

List reported MBC for each of these compounds:
1. CC[C@H]1OC(=O)[C@@](C)(F)C(=O)[C@H](C)[C@@H](O[C@@H]2O[C@H](C)C[C@H](N(C)C)[C@H]2O)[C@](C)(OC)C[C@@H](C)/C(=N\OC/C=C/c2ccc3[nH]cc(C(=O)O)c(=O)c3c2)[C@H](C)[C@H]2OC(=O)O[C@@]21C
2. CC[C@H]1OC(=O)[C@@](C)(F)C(=O)[C@H](C)[C@@H](O[C@@H]2O[C@H](C)C[C@H](N(C)C)[C@H]2O)[C@](C)(OC/C=C/c2ccc3c(c2)c(=O)c(C(=O)NC)cn3C2CC2)C[C@@H](C)/C(=N\OC)[C@H](C)[C@H]2OC(=O)O[C@@]21C
3. CC[C@H]1OC(=O)[C@@](C)(F)C(=O)[C@H](C)[C@@H](O[C@@H]2O[C@H](C)C[C@H](N(C)C)[C@H]2O)[C@](C)(OC)C[C@@H](C)/C(=N\OCC#Cc2cncc(C#N)c2)[C@H](C)[C@H]2OC(=O)O[C@@]21C
4. CC[C@H]1OC(=O)[C@@](C)(F)C(=O)[C@H](C)[C@@H](O[C@@H]2O[C@H](C)C[C@H](N(C)C)[C@H]2O)[C@](C)(OC/C=C/c2ccc3[nH]ccc(=O)c3c2)C[C@@H](C)/C(=N\OC)[C@H](C)[C@H]2OC(=O)O[C@@]21C

## Result
["> 256 µg/mL", "> 256 µg/mL", "> 256 µg/mL", "> 256 µg/mL"]

List reported MBC for each of these compounds:
1. CC[C@H]1OC(=O)[C@@](C)(F)C(=O)[C@H](C)[C@@H](O[C@@H]2O[C@H](C)C[C@H](N(C)C)[C@H]2O)[C@](C)(OC)C[C@@H](C)/C(=N\OCCCc2ccc3c(c2)c(=O)c(C(=O)O)cn3C2CC2)[C@H](C)[C@H]2OC(=O)O[C@@]21C
2. CC[C@H]1OC(=O)[C@@](C)(F)C(=O)[C@H](C)[C@@H](O[C@@H]2O[C@H](C)C[C@H](N(C)C)[C@H]2O)[C@](C)(OC)C[C@@H](C)/C(=N\OCC#Cc2cnc(N)c3ccccc23)[C@H](C)[C@H]2OC(=O)O[C@@]21C
3. CC[C@H]1OC(=O)[C@@](C)(F)C(=O)[C@H](C)[C@@H](O[C@@H]2O[C@H](C)C[C@H](N(C)C)[C@H]2O)[C@](C)(OC)C[C@@H](C)/C(=N\OCC#Cc2ccc3c(c2)c(=O)c(C(=O)NC)cn3CC)[C@H](C)[C@H]2OC(=O)O[C@@]21C
4. CC[C@H]1OC(=O)[C@@](C)(F)C(=O)[C@H](C)[C@@H](O[C@@H]2O[C@H](C)C[C@H](N(C)C)[C@H]2O)[C@](C)(OC)C[C@@H](C)/C(=N\OCC#Cc2ccc3[nH]ccc(=O)c3c2)[C@H](C)[C@H]2OC(=O)O[C@@]21C
5. CC[C@H]1OC(=O)[C@@](C)(F)C(=O)[C@H](C)[C@@H](O[C@@H]2O[C@H](C)C[C@H](N(C)C)[C@H]2O)[C@](C)(OC/C=C/c2ccc3c(c2)c(=O)c(C(=O)O)cn3C2CC2)C[C@@H](C)/C(=N\OC)[C@H](C)[C@H]2OC(=O)O[C@@]21C
6. CC[C@H]1OC(=O)[C@@](C)(F)C(=O)[C@H](C)[C@@H](O[C@@H]2O[C@H](C)C[C@H](N(C)C)[C@H]2O)[C@](C)(OC)C[C@@H](C)/C(=N\OCC#Cc2ccc([N+](=O)[O-])nc2)[C@H](C)[C@H]2OC(=O)O[C@@]21C

## Result
1: 128 µg/mL; 2: > 128 µg/mL; 3: > 256 µg/mL; 4: > 256 µg/mL; 5: 128 µg/mL; 6: > 256 µg/mL

List reported MBC for each of these compounds:
1. CC[C@H]1OC(=O)[C@@](C)(F)C(=O)[C@H](C)[C@@H](O[C@@H]2O[C@H](C)C[C@H](N(C)C)[C@H]2O)[C@](C)(OC)C[C@@H](C)/C(=N\OC/C=C/c2cncc(N)c2)[C@H](C)[C@H]2OC(=O)O[C@@]21C
2. CC[C@H]1OC(=O)[C@@](C)(F)C(=O)[C@H](C)[C@@H](O[C@@H]2O[C@H](C)C[C@H](N(C)C)[C@H]2O)[C@](C)(OC)C[C@@H](C)/C(=N\OC/C=C/c2ccc3[nH]ccc(=O)c3c2)[C@H](C)[C@H]2OC(=O)O[C@@]21C
3. CC[C@H]1OC(=O)[C@@](C)(F)C(=O)[C@H](C)[C@@H](O[C@@H]2O[C@H](C)C[C@H](N(C)C)[C@H]2O)[C@](C)(OC)C[C@@H](C)/C(=N\OCC#Cc2ccc3c(c2)c(=O)c(C(N)=O)cn3CC)[C@H](C)[C@H]2OC(=O)O[C@@]21C

## Result
1. > 256 µg/mL
2. > 256 µg/mL
3. > 256 µg/mL
